- Test system: secretion of IL6 by OCI-LY3 ABC-DLBCL cells
- protocolNotes: Human IL6 Mesoscale assay (OCI-LY3)
- Format: cell-based
- testContext: 24 h incubation, IL6 in supernatant
quantityMeasured: IC50 (nM)

# count of solved cases: 3
molecule | unitTag | IC50
CO[C@H](c1c(NC(=O)Nc2cnc(-n3nccn3)c(C(F)(F)F)c2)cnc(C)c1C#N)C1CC1 | nM | 140
CO[C@H](C)c1c(NC(=O)Nc2cnc(-n3nccn3)c(Cl)c2)cnc(N)c1Br | nM | 90
COC(C)c1c(NC(=O)Nc2cnc(-n3nccn3)c(C(F)(F)F)c2)cnc(C(F)F)c1C#N (single isomer, unassigned) [Co. 127] | nM | 60

a = COc1nc(-n2nccn2)c(Cl)cc1NC(=O)Nc1cnc(C)c(Cl)c1[C@@H](C)OC
b = CO[C@@H](c1c(NC(=O)Nc2cnc(-n3nccn3)c(C(F)(F)F)c2)cnc(C)c1C#N)C1CC1
c = COc1c(C)ncc(NC(=O)Nc2cnc(-n3nccn3)c(Cl)c2)c1[C@@H](C)OC
d = CO[C@@H](C)c1c(NC(=O)Nc2cnc(-n3nccn3)c(C#N)c2)cnc(C)c1Br
Please give the order of these molecules when sorted by IC50, largest value leading. Dear reader, please state the labels in the requested order.
d, c, a, b
